FYI, the data here is from paper PMC10926604.

# Experimental target: human PD-1/PD-L1 (Homo sapiens, UniProt Q9NZQ7)
# Sequence (Q9NZQ7 19-239 limits assumed): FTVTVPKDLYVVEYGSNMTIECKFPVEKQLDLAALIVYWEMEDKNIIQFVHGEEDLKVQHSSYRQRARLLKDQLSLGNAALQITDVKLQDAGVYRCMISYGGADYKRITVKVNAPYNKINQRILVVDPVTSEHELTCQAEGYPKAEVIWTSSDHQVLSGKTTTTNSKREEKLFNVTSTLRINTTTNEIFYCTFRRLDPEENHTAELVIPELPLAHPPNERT
# Protocol description: Cell-based blocking assay, human PD-1/PD-L1
# Conditions: CHO-K1-hPD-1 cells, PD-L1-Fc, flow cytometry; read-out: IC50 for blocking human PD-1/PD-L1 interaction
Parameter: IC50 (µM)
Hi! Could you send only the number? It should be in µM, unit omitted.

Problem: Consider the compound shown here: Cc1cc(C)cc(NS(=O)(=O)c2ccc3[nH]cc(C(=O)NCCc4ccccc4)c(=O)c3c2)c1 What is its recorded IC50?
Solution: 19.7

* * *

# Experimental target: murine PD-L1 (mPD-L1) (Mus musculus)
# Construct: PD-L1-IgV-His (human: 10,084-H08H, mouse: 50,010-M08H, Sino Biological); His
# Sequence (Q9EP73 19-127 limits assumed): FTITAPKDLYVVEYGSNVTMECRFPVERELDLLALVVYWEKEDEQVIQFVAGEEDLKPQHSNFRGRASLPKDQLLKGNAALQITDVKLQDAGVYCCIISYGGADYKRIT
# Protocol description: MST binding assay, murine PD-L1
# Conditions: PD-L1-IgV-His, read-out: dissociation constant (KD) for murine PD-L1
Parameter: Kd

Problem: Consider the compound shown here: Cc1cc(C)cc(NS(=O)(=O)c2ccc3[nH]cc(C(=O)NCCc4ccccc4)c(=O)c3c2)c1 What is its recorded Kd?
Solution: 25 nM
